Hello, the source for this data is patent US20120065123A1, in case you need it.

Measured Kd values are reported for all entries that follow.
Molecular target: transferrin
Experiment: SPR steady state, Biacore T100, transferrin immobilised

# binder, result_units, Kd
rows = [
    ("FRGWAHIFFGPHVIYRGGSC [TRF23]", "µM", 50),
    ("KEDNPGYSSEQDYNKLDGSC [TRF19]", "µM", 150),
    ("QYHHFMNLKRQGRAQAYGSC [TRF21]", "µM", 60),
    ("SVKPWRPLLTGNRWLNSGSC [TRF24]", "µM", 50),
    ("AHKVVPQRQIRHAYNRYGSC [TRF26]", "µM", 100),
    ("APYAPQQIHYWSTLGFKGSC [TRF25]", "µM", 60),
]
